- STUDY TARGET: T1, rat IL-17A (rat, UniProt Q61453 18-150, limits assumed)
- T1 construct: Purified recombinant protein in SPR
- T1 sequence (looked up): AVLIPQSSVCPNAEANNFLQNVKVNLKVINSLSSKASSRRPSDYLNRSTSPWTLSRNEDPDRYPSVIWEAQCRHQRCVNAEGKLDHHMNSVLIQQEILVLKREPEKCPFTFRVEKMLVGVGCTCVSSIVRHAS
- TEST DESCRIPTION: SPR (Biacore 3000), antibody captured by anti-Fc, antigen in solution;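 also: purified recombinant IL-17 antigens flowed over captured antibodies in HBS-EP buffer, global Langmuir one-to-one fit of association and dissociation phases, KD derived from koff over kon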
READOUT KIND: kon (M⁻¹ s⁻¹)
Lab book: enter the figure in M⁻¹ s⁻¹, no units written.

// below: answered binders
- BINDER: "IL17-h5C5.14 (antibody, V domains shown, IgG; constant regions not specified; also called h5C5.14 (VH.1-Vk.3a)) VH: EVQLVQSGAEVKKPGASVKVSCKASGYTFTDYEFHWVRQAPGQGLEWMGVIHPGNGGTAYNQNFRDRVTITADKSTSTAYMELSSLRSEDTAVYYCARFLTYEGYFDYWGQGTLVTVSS VL: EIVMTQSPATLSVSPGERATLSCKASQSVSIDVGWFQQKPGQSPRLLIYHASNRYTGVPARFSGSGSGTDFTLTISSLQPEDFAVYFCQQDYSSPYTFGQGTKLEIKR"
  kon [M⁻¹ s⁻¹]: 716000
- BINDER: "IL17-h5C5.21 (antibody, V domains shown, IgG; constant regions not specified; also called h5C5.21 (VH.1b-Vk.3c)) VH: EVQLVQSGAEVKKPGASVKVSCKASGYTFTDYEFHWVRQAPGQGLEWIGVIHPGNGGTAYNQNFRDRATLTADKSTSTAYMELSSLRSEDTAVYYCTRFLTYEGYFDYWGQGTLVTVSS VL: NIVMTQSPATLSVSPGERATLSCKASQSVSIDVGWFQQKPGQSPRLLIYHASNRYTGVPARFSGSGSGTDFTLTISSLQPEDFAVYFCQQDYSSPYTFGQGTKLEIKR"
  kon [M⁻¹ s⁻¹]: 402000

Lookup result for IL17-h5C5.18 (antibody, V domains shown, IgG; constant regions not specified; also called h5C5.18 (VH.1b-Vk.1c)) VH: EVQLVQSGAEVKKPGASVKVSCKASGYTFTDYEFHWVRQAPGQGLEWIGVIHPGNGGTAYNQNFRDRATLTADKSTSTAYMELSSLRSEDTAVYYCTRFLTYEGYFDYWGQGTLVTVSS VL: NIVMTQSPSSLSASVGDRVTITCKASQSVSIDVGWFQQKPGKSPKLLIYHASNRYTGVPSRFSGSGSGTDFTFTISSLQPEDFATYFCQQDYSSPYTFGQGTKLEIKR ; measured kon: 460000
